- assayedSystem: furin, P09958;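 further: purified furin at 1:10 enzyme:substrate in 50 mM HEPES pH 7.5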
- Sequence (P09958 whole entry): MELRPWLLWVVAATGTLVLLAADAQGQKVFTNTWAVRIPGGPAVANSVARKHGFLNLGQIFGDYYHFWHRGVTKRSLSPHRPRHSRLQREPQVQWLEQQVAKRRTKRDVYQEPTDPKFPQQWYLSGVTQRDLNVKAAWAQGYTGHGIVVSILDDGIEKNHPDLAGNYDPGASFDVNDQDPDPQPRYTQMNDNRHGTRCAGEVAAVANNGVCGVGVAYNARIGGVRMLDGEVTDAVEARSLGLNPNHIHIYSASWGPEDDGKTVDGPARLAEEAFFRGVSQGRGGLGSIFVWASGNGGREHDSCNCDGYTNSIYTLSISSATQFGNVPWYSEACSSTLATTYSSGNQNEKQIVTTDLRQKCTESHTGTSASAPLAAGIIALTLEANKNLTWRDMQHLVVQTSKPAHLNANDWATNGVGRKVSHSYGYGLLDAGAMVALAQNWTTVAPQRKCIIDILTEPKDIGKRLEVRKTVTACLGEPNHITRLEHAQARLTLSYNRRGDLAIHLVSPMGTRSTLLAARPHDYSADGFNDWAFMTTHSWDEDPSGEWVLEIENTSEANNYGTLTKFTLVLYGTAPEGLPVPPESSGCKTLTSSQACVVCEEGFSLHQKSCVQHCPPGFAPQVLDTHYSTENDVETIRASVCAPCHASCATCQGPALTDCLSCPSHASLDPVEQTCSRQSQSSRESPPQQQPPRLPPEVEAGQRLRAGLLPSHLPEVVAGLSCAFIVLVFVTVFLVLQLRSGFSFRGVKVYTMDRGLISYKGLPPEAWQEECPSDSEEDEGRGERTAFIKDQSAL
- test: furin cleavage Z-score vs untreated control; higher = more cleavage, active = 3.5 or more, inactive = 1 or less, 8 variable residues between constant flanks
- measurementSetup: 7.5 min
This is one part of the list. No count for the full screen is at hand.
outcomeMeasure: furin cleavage Z-score

1) CATFWAKHMWAGNASASA [HC1040] : 0.313 (inactive)
2) CAEVSCHRPSAGNASASA [HC2357] : 0.821 (inactive)
3) CAHHNLVYSTAGNASASA [HC1387] : 0.206 (inactive)
4) CATRSRRGRFAGNASASA [FS-204] : 2.71
